Sourced from patent US5698580A

# assay-protocol: in vitro
# Assay type: cell-based
# test-settings: human, hela cells
# Procedure: The confluently grown HeLa cells in 24 well flat-bottom multitrays were inoculated with RS virus Long strain prepared in a maintenance medium (Eagle's MEM medium supplemented with 2% bovine serum albumin), and the cells were incubated in a CO2 gas incubator at 35° C. for one hour. […] The infected cell plaques which were not stained with crystal violet were microscopically counted. […] The ratio of CC50 to EC50 was determined as S.I. (selectivity index, CC50 /EC50).
readout-label: CC50 (µg/mL)
Answers are plain numbers, in µg/mL.

Item: c1ccc2c(c1)CSSC2 [Compound 1, 1,4-dihydro-2,3-benzodithiin] | CC50: 44.7

====

# assay-protocol: in vitro
# Type: cell-based
# test-settings: human, hela cells
Exercise: for every item that follows, state its recorded CC50 at 120 h.
Give bare numbers, in µg/mL.

Quick batch: CC50 at 120 h for everything below.
1. Cc1ccc2c(c1)CSSC2 [Compound 6, 1,4-dihydro-6-methyl-2,3-benzodithiin]
2. CC(C)(C)c1ccc2c(c1)CSSC2
3. Clc1ccc2c(c1)CSSC2 [Compound 11, 6-chloro-1,4-dihydro-2,3-benzodithiin]
4. CN(C)c1ccc2c(c1)CSSC2
5. Fc1ccc2c(c1)CSSC2 [Compound 9, 1,4-dihydro-6-fluoro-2,3-benzodithiin]
6. c1ccc2c(c1)CSSC2 [Compound 1, 1,4-dihydro-2,3-benzodithiin]
7. O=C(O)c1ccc2c(c1)CSSC2
8. Nc1ccc2c(c1)CSSC2 [Compound 3, 6-amino-1,4-dihydro-2,3-benzodithiin]

**A:**
1: 44.7; 2: 15.2; 3: 16.8; 4: 33.3; 5: 57.7; 6: 43; 7: 47.2; 8: 5.1

// input: 4 molecules below; output: CC50 at 120 h for each
1. O=[N+]([O-])c1ccc2c(c1)CSSC2 [Compound 2, 1,4-dihydro-6-nitro-2,3-benzodithiin]
2. c1ccc(COc2ccc3c(c2)CSSC3)cc1 [Compound 7, 6-benzyloxy-1,4-dihydro-2,3-benzodithiin]
3. COC(=O)c1ccc2c(c1)CSSC2
4. COc1ccc2c(c1)CSSC2 [Compound 8, 1,4-dihydro-6-methoxy-2,3-benzodithiin]

**A:**
8.9
9.6
9.7
12.8

====

# Test system: RS virus
# assay-protocol: Suppression of RS virus assayed by the MTT method (Experimental Example 1)
# Type: cell-based, RS virus Long strain
# test-settings: 120 h; concentration inhibiting HeLa cell destruction by RS virus infection by 50%; 35° C., 5 days; MTT
# Experimental: After the completion of the centrifugation, the media were incubated in a CO2 gas incubator at 35° C. for 5 days. The MTT [3-(4,5-dimethylthiazol-2-yl)-2,5-diphenyltetrazolium bromide] solution was added to the media at 4 hours before the completion of the incubation, and the proportion of viable cells was colorimetrically determined on a microplate reader. […] The ratio of CC50 to EC50 was determined as S.I. (selectivity index, CC50 /EC50).
// assign 1 if EC50 falls strictly below 2 µg/mL, else 0 (ties count as 0)

>  <compound>
Fc1cccc2c1CSSC2 [Compound 10, 1,4-dihydro-5-fluoro-2,3-benzodithiin]

>  <answer-label>
1

$$$$
>  <compound>
Nc1ccc2c(c1)CSSC2 [Compound 3, 6-amino-1,4-dihydro-2,3-benzodithiin]

>  <answer-label>
0

$$$$
>  <compound>
CN(C)c1ccc2c(c1)CSSC2 [Compound 12]

>  <answer-label>
0

$$$$
>  <compound>
Cc1ccc2c(c1)CSSC2 [Compound 6, 1,4-dihydro-6-methyl-2,3-benzodithiin]

>  <answer-label>
1

$$$$
>  <compound>
NC(=O)c1ncn([C@@H]2O[C@H](CO)[C@@H](O)[C@H]2O)n1 [Ribavirin, reference compound]

>  <answer-label>
0

$$$$

Please turn your attention to the following entry.
**Q:** Determine whether this compound shows EC50 lower than 2 µg/mL (ties excluded): Clc1ccc2c(c1)CSSC2 [Compound 11, 6-chloro-1,4-dihydro-2,3-benzodithiin]
**A:** 1

====

Provide the reported EC50 of each item.
# Test system: RS virus
# assay-protocol: Suppression of RS virus assayed by the MTT method (Experimental Example 1)
# Type: cell-based, RS virus Long strain
# test-settings: 120 h; concentration inhibiting HeLa cell destruction by RS virus infection by 50%; 35° C., 5 days; MTT
Give bare numbers, in µg/mL.

>  <compound>
COc1ccc2c(c1)CSSC2 [Compound 8, 1,4-dihydro-6-methoxy-2,3-benzodithiin]

>  <measurement-units>
µg/mL

>  <EC50>
1.6

$$$$
>  <compound>
Fc1ccc2c(c1)CSSC2 [Compound 9, 1,4-dihydro-6-fluoro-2,3-benzodithiin]

>  <measurement-units>
µg/mL

>  <EC50>
0.8

$$$$

Each compound below has a recorded value; state its EC50.
1. c1ccc2c(c1)CSSC2 [Compound 1, 1,4-dihydro-2,3-benzodithiin]
2. COC(=O)c1ccc2c(c1)CSSC2 [Compound 4]
3. O=C(O)c1ccc2c(c1)CSSC2 [Compound 5]
4. CC(C)(C)c1ccc2c(c1)CSSC2 [Compound 13]
5. O=[N+]([O-])c1ccc2c(c1)CSSC2 [Compound 2, 1,4-dihydro-6-nitro-2,3-benzodithiin]

**A:**
0.3
1.8
11.8
6.5
1.9
